Let's look at some compounds and their measured viability, T/C.
- Tested on: 435261-313-R-J1-PDC tumor spheroid viability
- assay_details: Anticancer human tumor 435261-313-R-J1-PDC patient-derived colon adenocarcinoma cell line growth inhibition [PI3K]
- measurement_parameters: second compound 0.0316 µM; first compound 1 µM; stronger effect = lower value; spheroids with HUVEC and MSC
- Text: Combinatorial screen of targeted agents with the PI3K inhibitors inavolisib, alpelisib, duvelisib, and copanlisib in multi-cell type tumor spheroids A high-throughput screen of multi-cell type tumor spheroids was designed to identify active combinations of targeted small molecules and PI3K pathway inhibitors. […] Compounds. […] If the clinical Cmax for an agent had not been determined, the highest concentration tested was 10 microM. […]
// note: answer is a bare numeric in %

Reference set, count: 6
CC1(C)CCC(Nc2ncc(C(F)(F)F)c(-c3c[nH]c4c(P(C)(C)=O)c(C#N)ccc34)n2)CN1 (stereo not given) + COc1c(OCCCN2CCOCC2)ccc2c3n(c(=NC(=O)c4cnc(N)nc4)nc12)CCN3 :: 30.9
CC1(C)CCC(CN2CCN(c3ccc(C(=O)NS(=O)(=O)c4ccc(NCC5CCOCC5)c([N+](=O)[O-])c4)c(Oc4cnc5[nH]ccc5c4)c3)CC2)=C(c2ccc(Cl)cc2)C1 + Cc1nc(NC(=O)N2CCCC2C(N)=O)sc1-c1ccnc(C(C)(C)C(F)(F)F)c1 :: 83
C=CC(=O)N1CCN(c2nc(=O)n(-c3c(C)ccnc3C(C)C)c3nc(-c4c(O)cccc4F)c(F)cc23)C(C)C1 (stereo not given) + Cc1nc(NC(=O)N2CCCC2C(N)=O)sc1-c1ccnc(C(C)(C)C(F)(F)F)c1 :: 91.5
C[C@@H](NC(=O)c1ncnc(N)c1Cl)c1ncc(C(=O)Nc2cc(C(F)(F)F)c(Cl)cn2)s1 + CC(Nc1ncnc2nc[nH]c12)c1cc2cccc(Cl)c2c(=O)n1-c1ccccc1 :: 145
CC(Cn1ccc(-c2ccc(C#N)c(Cl)c2)n1)NC(=O)c1cc(C(C)O)[nH]n1 (stereo not given) + CC(Nc1ccc2c(c1)OCCn1cc(N3C(=O)OCC3C(F)F)nc1-2)C(N)=O :: 77.4
CCN1CCN(Cc2ccc(Nc3ncc(F)c(-c4cc(F)c5nc(C)n(C(C)C)c5c4)n3)nc2)CC1 + COc1c(OCCCN2CCOCC2)ccc2c3n(c(=NC(=O)c4cnc(N)nc4)nc12)CCN3 :: 25.2

435261-313-R-J1-PDC tumor spheroid viability / viability, T/C / CCCS(=O)(=O)Nc1ccc(F)c(C(=O)c2c[nH]c3ncc(-c4ccc(Cl)cc4)cc23)c1F + Cc1nc(NC(=O)N2CCCC2C(N)=O)sc1-c1ccnc(C(C)(C)C(F)(F)F)c1 : value?
107

What do you get for CNC(=O)c1ccc(N2C(=S)N(c3ccc(C#N)c(C(F)(F)F)c3)C(=O)C2(C)C)cc1F + CC(Nc1ccc2c(c1)OCCn1cc(N3C(=O)OCC3C(F)F)nc1-2)C(N)=O ?
82.9

What do you get for CCCS(=O)(=O)Nc1ccc(F)c(C(=O)c2c[nH]c3ncc(-c4ccc(Cl)cc4)cc23)c1F + COc1c(OCCCN2CCOCC2)ccc2c3n(c(=NC(=O)c4cnc(N)nc4)nc12)CCN3 ?
33.9

What do you get for CCN1CCN(Cc2ccc(Nc3ncc(F)c(-c4cc(F)c5nc(C)n(C(C)C)c5c4)n3)nc2)CC1 + CC(Nc1ncnc2nc[nH]c12)c1cc2cccc(Cl)c2c(=O)n1-c1ccccc1 ?
51.6

* * *

- Test system: 435261-313-R-J1-PDC tumor spheroid viability
- assay_details: Anticancer human tumor 435261-313-R-J1-PDC cell line growth inhibition [PI3K];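 also: spheroids exposed to compounds for 7 days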
- measurement_parameters: curve of first compound; second compound 10 µM; spheroids with HUVEC and MSC
pIC50: −log10 of the molar value.
readout: pIC50

Reference set, count: 2
CC(=O)c1c(C)c2cnc(Nc3ccc(N4CCNCC4)cn3)nc2n(C2CCCC2)c1=O + Cc1nc(NC(=O)N2CCCC2C(N)=O)sc1-c1ccnc(C(C)(C)C(F)(F)F)c1 :: > 9.50
CNC(=O)c1ccc(N2C(=S)N(c3ccc(C#N)c(C(F)(F)F)c3)C(=O)C2(C)C)cc1F + Cc1nc(NC(=O)N2CCCC2C(N)=O)sc1-c1ccnc(C(C)(C)C(F)(F)F)c1 :: > 7.50

Look at this compound and give its reported pIC50. Cn1ncc(Cl)c1-c1cc(C(=O)NC(CN)Cc2cccc(F)c2)sc1Cl (stereo not drawn) + Cc1nc(NC(=O)N2CCCC2C(N)=O)sc1-c1ccnc(C(C)(C)C(F)(F)F)c1
> 7.50

What do you get for Cn1ncc(Cl)c1-c1cc(C(=O)NC(CN)Cc2cccc(F)c2)sc1Cl (stereo not drawn) + CC(Nc1ncnc2nc[nH]c12)c1cc2cccc(Cl)c2c(=O)n1-c1ccccc1 ?
6.81

What do you get for Cn1cnc2c(F)c(Nc3ccc(Br)cc3Cl)c(C(=O)NOCCO)cc21 + CC(Nc1ncnc2nc[nH]c12)c1cc2cccc(Cl)c2c(=O)n1-c1ccccc1 ?
> 8.02

What do you get for CC1(C)CCC(CN2CCN(c3ccc(C(=O)NS(=O)(=O)c4ccc(NCC5CCOCC5)c([N+](=O)[O-])c4)c(Oc4cnc5[nH]ccc5c4)c3)CC2)=C(c2ccc(Cl)cc2)C1 + Cc1nc(NC(=O)N2CCCC2C(N)=O)sc1-c1ccnc(C(C)(C)C(F)(F)F)c1 ?
> 7.50

What do you get for C=CC(=O)N1CCN(c2nc(=O)n(-c3c(C)ccnc3C(C)C)c3nc(-c4c(O)cccc4F)c(F)cc23)C(C)C1 (stereo not drawn) + Cc1nc(NC(=O)N2CCCC2C(N)=O)sc1-c1ccnc(C(C)(C)C(F)(F)F)c1 ?
> 7.50

What do you get for CC(C)n1nc(-c2ccc3oc(N)nc3c2)c2c(N)ncnc21 + Cc1nc(NC(=O)N2CCCC2C(N)=O)sc1-c1ccnc(C(C)(C)C(F)(F)F)c1 ?
> 9.50

What do you get for CC1(C)CCC(Nc2ncc(C(F)(F)F)c(-c3c[nH]c4c(P(C)(C)=O)c(C#N)ccc34)n2)CN1 (stereo not drawn) + Cc1nc(NC(=O)N2CCCC2C(N)=O)sc1-c1ccnc(C(C)(C)C(F)(F)F)c1 ?
> 7.50

What do you get for C=CC(=O)N1CCN(c2nc(=O)n(-c3c(C)ccnc3C(C)C)c3nc(-c4c(O)cccc4F)c(F)cc23)C(C)C1 (stereo not drawn) + CC(Nc1ncnc2nc[nH]c12)c1cc2cccc(Cl)c2c(=O)n1-c1ccccc1 ?
< 5.00

What do you get for Cn1nccc1Nc1nccc(-c2ccn(C(CO)c3ccc(Cl)c(F)c3)c(=O)c2)n1 (stereo not drawn) + Cc1nc(NC(=O)N2CCCC2C(N)=O)sc1-c1ccnc(C(C)(C)C(F)(F)F)c1 ?
> 7.50

What do you get for C#Cc1c(F)ccc2cc(O)cc(-c3ncc4c(N5CC6CCC(C5)N6)nc(OCC56CCCN5CC(F)C6)nc4c3F)c12 (stereo not drawn) + Cc1nc(NC(=O)N2CCCC2C(N)=O)sc1-c1ccnc(C(C)(C)C(F)(F)F)c1 ?
> 7.50

What do you get for CC(Cn1ccc(-c2ccc(C#N)c(Cl)c2)n1)NC(=O)c1cc(C(C)O)[nH]n1 (stereo not drawn) + Cc1nc(NC(=O)N2CCCC2C(N)=O)sc1-c1ccnc(C(C)(C)C(F)(F)F)c1 ?
> 7.50

What do you get for CC(C)NCC(C(=O)N1CCN(c2ncnc3c2C(C)CC3O)CC1)c1ccc(Cl)cc1 (stereo not drawn) + CC(Nc1ncnc2nc[nH]c12)c1cc2cccc(Cl)c2c(=O)n1-c1ccccc1 ?
6.11

What do you get for C#Cc1c(F)ccc2cc(O)cc(-c3ncc4c(N5CC6CCC(C5)N6)nc(OCC56CCCN5CC(F)C6)nc4c3F)c12 (stereo not drawn) + CC(Nc1ncnc2nc[nH]c12)c1cc2cccc(Cl)c2c(=O)n1-c1ccccc1 ?
6.50

What do you get for CC1(C)CCC(CN2CCN(c3ccc(C(=O)NS(=O)(=O)c4ccc(NCC5CCOCC5)c([N+](=O)[O-])c4)c(Oc4cnc5[nH]ccc5c4)c3)CC2)=C(c2ccc(Cl)cc2)C1 + CC(Nc1ncnc2nc[nH]c12)c1cc2cccc(Cl)c2c(=O)n1-c1ccccc1 ?
> 7.50

What do you get for Cn1ncnc1[C@H]1c2n[nH]c(=O)c3cc(F)cc(c23)N[C@@H]1c1ccc(F)cc1 + Cc1nc(NC(=O)N2CCCC2C(N)=O)sc1-c1ccnc(C(C)(C)C(F)(F)F)c1 ?
> 9.50

What do you get for C[C@@H](NC(=O)c1ncnc(N)c1Cl)c1ncc(C(=O)Nc2cc(C(F)(F)F)c(Cl)cn2)s1 + CC(Nc1ncnc2nc[nH]c12)c1cc2cccc(Cl)c2c(=O)n1-c1ccccc1 ?
5.45

What do you get for CNC(=O)c1ccc(N2C(=S)N(c3ccc(C#N)c(C(F)(F)F)c3)C(=O)C2(C)C)cc1F + CC(Nc1ncnc2nc[nH]c12)c1cc2cccc(Cl)c2c(=O)n1-c1ccccc1 ?
< 5.00

What do you get for CC1(C)CCC(Nc2ncc(C(F)(F)F)c(-c3c[nH]c4c(P(C)(C)=O)c(C#N)ccc34)n2)CN1 (stereo not drawn) + CC(Nc1ncnc2nc[nH]c12)c1cc2cccc(Cl)c2c(=O)n1-c1ccccc1 ?
> 7.50

What do you get for CCN1CCN(Cc2ccc(Nc3ncc(F)c(-c4cc(F)c5nc(C)n(C(C)C)c5c4)n3)nc2)CC1 + CC(Nc1ncnc2nc[nH]c12)c1cc2cccc(Cl)c2c(=O)n1-c1ccccc1 ?
> 8.50

What do you get for CC(Cn1ccc(-c2ccc(C#N)c(Cl)c2)n1)NC(=O)c1cc(C(C)O)[nH]n1 (stereo not drawn) + CC(Nc1ncnc2nc[nH]c12)c1cc2cccc(Cl)c2c(=O)n1-c1ccccc1 ?
< 5.00

What do you get for CCCS(=O)(=O)Nc1ccc(F)c(C(=O)c2c[nH]c3ncc(-c4ccc(Cl)cc4)cc23)c1F + Cc1nc(NC(=O)N2CCCC2C(N)=O)sc1-c1ccnc(C(C)(C)C(F)(F)F)c1 ?
> 7.50

Data credit: PubChem BioAssay AID1963976
